IC50 overview
Tested on: A375 cell line
Test: Alamar Blue cell viability assay, A375
Assay type: cell-based
Conditions: Homo sapiens, A-375, 96 h, read-out: Pharmaceutical activity in A375 cell line IC50

| MOLECULE | ASSAYED_TARGET | IC50 |
| --- | --- | --- |
| CC(C)NC(=O)c1cc2ccc(N3CCCNCC3)nc2n2c1nc1ccccc12 [Compound 9B] | A375 cell line | 1 to 5 µM |
| CC(C)NC(=O)c1cc2ccc(N3CCN(C)CC3)nc2n2c1nc1ccccc12 [Compound 5D] | A375 cell line | 5 to 10 µM |

###

// values below are reported pIC50
Tested on: MCF7
Assay: Alamar Blue cell viability assay, MCF7
Type: cell-based
Settings: Homo sapiens, 96 h incubation, read-out: cell proliferation inhibition MCF7
pIC50: −log10 of the molar value. Where a name gives a salt, the structure may show the parent alone.

| COMPOUND | ASSAYED_TARGET | pIC50 |
| --- | --- | --- |
| CNC(=O)c1cc2ccc(N3CCCN(C)CC3)nc2n2c1nc1ccccc12 [Compound 2G] | MCF7 | 5.30 to 6.00 |
| CN1CCCN(c2ccc3cc(C(=O)O)c4nc5ccccc5n4c3n2)CC1 [Compound 1A, sodium salt] | MCF7 | 5.30 to 6.00 |
| C[C@@H]1CN(c2ccc3cc(C#N)c4nc5ccccc5n4c3n2)C[C@H](C)N1 [Compound 3A] | MCF7 | 5.00 to 5.30 |
